Measured values drawn from paper PMC2603005 for this set.

measured-on: 6 × His-ATD2B (amino-terminal domain of NR2B subunit), wild type (Rattus norvegicus, UniProt Q00960)
Sequence (Q00960 27-393): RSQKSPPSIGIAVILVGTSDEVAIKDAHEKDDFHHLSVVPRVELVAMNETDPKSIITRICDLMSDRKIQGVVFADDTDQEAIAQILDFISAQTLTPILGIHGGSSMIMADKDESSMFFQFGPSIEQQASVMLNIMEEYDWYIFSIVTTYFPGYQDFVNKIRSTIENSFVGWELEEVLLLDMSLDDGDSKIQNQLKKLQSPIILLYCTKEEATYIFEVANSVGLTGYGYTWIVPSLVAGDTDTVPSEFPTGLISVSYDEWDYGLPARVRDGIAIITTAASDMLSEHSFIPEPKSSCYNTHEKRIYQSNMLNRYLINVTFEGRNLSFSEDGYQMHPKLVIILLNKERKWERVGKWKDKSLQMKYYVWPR
protocol-details: CD ligand displacement: RO25,6981 displacing saturating ifenprodil on 6 × His-ATD2B
Assay type: binding
Set-up: representation of the ATD2B construct (Arg27 to Arg393) with 6xHis-tag and linker; made in house
measurement-parameters: Affinity (Ki) on displacing ifenprodil
assay-readout: Ki (nM)
Value expressed in nM; do not type the unit.

Lookup: Tell me the measured Ki of C[C@@H](CN1CCC(Cc2ccccc2)CC1)[C@@H](O)c1ccc(O)cc1 [RO25,6981] , please.
Found: 4

###

measured-on: 6 × His-ATD2B (amino-terminal domain of NR2B subunit), wild type (Rattus norvegicus)
protocol-details: biochemical
measurement-parameters: Buffer-12 refolded protein, CD at 25°C, n = 5
assay-readout: pKd
Please note pKd is a logarithmic value: minus log10 of concentration in mol/L. Answer with that number alone.

Lookup: Tell me the measured pKd of C[C@@H](CN1CCC(Cc2ccccc2)CC1)[C@@H](O)c1ccc(O)cc1 , please.
Found: 8.40

###

measured-on: 6 × His-ATD2B (amino-terminal domain of NR2B subunit), wild type (Rattus norvegicus, UniProt Q00960)
protocol-details: CD ligand displacement: RO25,6981 displacing saturating ifenprodil on 6 × His-ATD2B
Assay type: binding
Parameters: representation of the ATD2B construct (Arg27 to Arg393) with 6xHis-tag and linker; made in house
measurement-parameters: Affinity (Ki) on displacing ifenprodil, Buffer-12 refolded protein, in presence of saturating 5 μM ifenprodil
assay-readout: Ki
Give the value; after it, write the unit.

Lookup: Tell me the measured Ki of C[C@@H](CN1CCC(Cc2ccccc2)CC1)[C@@H](O)c1ccc(O)cc1 , please.
Found: 2 nM
